# System: DHFR (human against Plasmodium falciparum DHFR double mutant)
# run.description: Selectivity index, ratio of Ki for human DHFR expressed in Escherichia coli BL21 to Ki for Plasmodium falciparum DHFR double mutant expressed in Escherichia coli BL21
# Assay type: toxicity
# test.conditions: read-out: Ratio Ki
Measured selectivity ratio values are reported for all entries that follow.
measurement.label: selectivity ratio

                                   compound  val
0   CC1(C)N=C(N)N=C(N)N1OCCCOc1cccc(Cl)c1Cl   24
1      CC1(C)N=C(N)N=C(N)N1OCCSc1ccc(Cl)cc1   32
2   Cc1ccc(C)c(NCCCON2C(N)=NC(N)=NC2(C)C)c1  113
3  CC1N=C(N)N=C(N)N1OCCCOc1cc(Cl)c(Cl)cc1Cl (stereo unspecified)   47
4         CC1(C)N=C(N)N=C(N)N1OCCCOc1ccccc1   36
5     CC1(C)N=C(N)N=C(N)N1OCCCSc1cccc(Cl)c1   30

====

Measured IC50 values are reported for all entries that follow.
# System: Vero
# run.description: Cytotoxicity against African green monkey Vero cells assessed as reduction in cell viability incubated for 72 hrs by SRB assay
# Assay type: cell-based
# test.conditions: Chlorocebus sabaeus
measurement.label: IC50

>>> df
                                    molecule  measurement_label      val
 0  CC1(C)N=C(N)N=C(N)N1OCCCNc1ccc(Cl)c(Cl)c1               IC50  > 50 µM
 1  NC1=NC(c2ccccc2)N(OCCCOc2cc(Cl)c(Cl)cc2Cl)C(N)=N1 (configuration not stated)               IC50  25.1 µM
 2         CC1(C)NC(N)=NC(=N)N1OCCCSc1ccccc1               IC50  63.8 µM
 3  CC1N=C(N)N=C(N)N1OCCCOc1cccc(Cl)c1Cl (configuration not stated)               IC50  5.91 µM
 4  CC1(C)N=C(N)N=C(N)N1OCCCOc1cc(Cl)c(Cl)cc1Cl               IC50   > 1 µM
 5  CC1N=C(N)N=C(N)N1OCCCOc1ccc(F)cc1Cl (configuration not stated)               IC50  > 50 µM
 6     CC1(C)N=C(N)N=C(N)N1OCCCSc1cccc(Cl)c1               IC50   3.9 µM
 7         CC1(C)N=C(N)N=C(N)N1OCCCCc1ccccc1               IC50  27.1 µM
 8  CN(CCCON1C(N)=NC(N)=NC1(C)C)c1ccc(Cl)c(Cl)c1               IC50  33.3 µM
 9  CC1N=C(N)N=C(N)N1OCCCOc1cc(Cl)c(Cl)cc1Cl (configuration not stated)               IC50    46 µM
10          CC1(C)N=C(N)N=C(N)N1OCCCc1ccccc1               IC50   7.1 µM
11  CC1N=C(N)N=C(N)N1OCCCOc1ccc(Cl)cc1 (configuration not stated)               IC50  > 50 µM

====

# run.description: Therapeutic index, ratio of IC50 for African green monkey Vero cells to IC50 for Plasmodium falciparum V1/S harboring DHFR N51I/C59R/S108N/I164L mutant
# Format: toxicity
# test.conditions: read-out: Ratio IC50
Measured selectivity ratio values are reported for all entries that follow.
measurement.label: selectivity ratio

                                   molecule  measurement_label  inequality_symbol   val
0  CN(CCCON1C(N)=NC(N)=NC1(C)C)c1ccc(Cl)c(Cl)c1  selectivity ratio                  =   115
1  CC1(C)N=C(N)N=C(N)N1OCCCNc1ccc(Cl)c(Cl)c1  selectivity ratio                  >    68
2    CC1(C)N=C(N)N=C(N)N1OCCCOc1ccc(F)cc1Cl  selectivity ratio                  =  7130
3      CC1(C)N=C(N)N=C(N)N1OCCSc1ccc(Cl)cc1  selectivity ratio                  =    26
4         CC1(C)NC(N)=NC(=N)N1OCCCSc1ccccc1  selectivity ratio                  =   997
5  CC1N=C(N)N=C(N)N1OCCCOc1ccc(Cl)cc1 (stereo unspecified)  selectivity ratio                  >    61
